molecular target: Sodium channel protein type 5 subunit alpha (Homo sapiens); assay type: functional, cell-based; also: assay procedure not described here
Sequence (Q14524 whole entry): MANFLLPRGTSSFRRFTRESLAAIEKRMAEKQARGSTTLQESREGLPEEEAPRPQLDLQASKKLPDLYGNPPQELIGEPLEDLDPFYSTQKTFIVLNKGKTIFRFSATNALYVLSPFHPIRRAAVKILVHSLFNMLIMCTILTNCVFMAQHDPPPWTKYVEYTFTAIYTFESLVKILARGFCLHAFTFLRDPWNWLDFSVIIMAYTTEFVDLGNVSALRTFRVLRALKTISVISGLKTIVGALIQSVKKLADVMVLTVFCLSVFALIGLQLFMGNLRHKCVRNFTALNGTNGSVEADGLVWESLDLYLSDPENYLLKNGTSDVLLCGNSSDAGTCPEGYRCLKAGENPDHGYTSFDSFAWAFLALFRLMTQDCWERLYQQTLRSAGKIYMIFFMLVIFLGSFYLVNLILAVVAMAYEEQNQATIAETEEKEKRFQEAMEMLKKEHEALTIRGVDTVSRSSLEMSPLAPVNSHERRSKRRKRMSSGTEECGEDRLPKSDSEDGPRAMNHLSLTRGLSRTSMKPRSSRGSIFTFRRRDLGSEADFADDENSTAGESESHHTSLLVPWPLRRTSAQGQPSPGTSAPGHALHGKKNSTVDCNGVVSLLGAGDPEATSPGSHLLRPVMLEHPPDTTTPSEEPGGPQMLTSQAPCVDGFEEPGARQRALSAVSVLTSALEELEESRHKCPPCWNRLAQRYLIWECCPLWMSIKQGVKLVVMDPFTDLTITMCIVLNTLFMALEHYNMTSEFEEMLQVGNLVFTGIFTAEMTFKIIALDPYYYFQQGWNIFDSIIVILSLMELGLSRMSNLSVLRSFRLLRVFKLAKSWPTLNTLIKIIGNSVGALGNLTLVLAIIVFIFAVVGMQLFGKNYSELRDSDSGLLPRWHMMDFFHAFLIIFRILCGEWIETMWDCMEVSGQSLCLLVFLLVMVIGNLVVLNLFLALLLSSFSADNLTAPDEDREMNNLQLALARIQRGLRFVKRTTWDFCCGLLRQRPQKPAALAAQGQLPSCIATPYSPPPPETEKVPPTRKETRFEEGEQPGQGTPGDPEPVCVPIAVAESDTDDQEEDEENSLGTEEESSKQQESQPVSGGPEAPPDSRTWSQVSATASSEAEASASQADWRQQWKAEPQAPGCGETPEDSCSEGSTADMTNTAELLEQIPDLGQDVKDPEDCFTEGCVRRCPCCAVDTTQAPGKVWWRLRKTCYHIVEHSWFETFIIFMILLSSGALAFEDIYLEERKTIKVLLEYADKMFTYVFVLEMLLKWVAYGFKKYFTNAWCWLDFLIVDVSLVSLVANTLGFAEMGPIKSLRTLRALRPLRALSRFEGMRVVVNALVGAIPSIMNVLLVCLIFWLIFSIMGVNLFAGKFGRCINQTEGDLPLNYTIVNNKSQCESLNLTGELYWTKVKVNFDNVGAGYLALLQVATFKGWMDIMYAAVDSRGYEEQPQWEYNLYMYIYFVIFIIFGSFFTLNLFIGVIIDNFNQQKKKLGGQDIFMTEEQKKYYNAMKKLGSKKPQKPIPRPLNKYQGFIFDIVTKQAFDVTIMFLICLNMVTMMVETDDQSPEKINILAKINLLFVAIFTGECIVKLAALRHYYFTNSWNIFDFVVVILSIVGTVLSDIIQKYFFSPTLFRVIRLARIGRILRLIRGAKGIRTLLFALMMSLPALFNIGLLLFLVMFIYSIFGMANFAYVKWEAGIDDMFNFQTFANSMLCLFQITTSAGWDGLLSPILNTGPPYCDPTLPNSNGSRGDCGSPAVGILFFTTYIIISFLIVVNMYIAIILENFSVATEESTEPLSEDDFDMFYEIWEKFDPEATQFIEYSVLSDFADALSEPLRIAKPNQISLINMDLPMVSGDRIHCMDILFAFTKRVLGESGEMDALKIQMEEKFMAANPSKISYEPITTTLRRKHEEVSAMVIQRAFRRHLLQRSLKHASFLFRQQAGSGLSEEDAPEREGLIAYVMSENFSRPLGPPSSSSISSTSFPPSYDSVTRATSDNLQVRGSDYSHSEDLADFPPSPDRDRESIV
Examples of compounds with documented AC50 follow.

Previously resolved entries follow.
CC(NC(C)(C)C)C(=O)c1cccc(Cl)c1 (stereo not drawn) [BUPROPION]	> 30 µM
Cc1cnc(Nc2ccc(OCCN3CCCC3)cc2)nc1Nc1cccc(S(=O)(=O)NC(C)(C)C)c1 [FEDRATINIB]	7.7 µM

What measured AC50 goes with NCC1(CC(=O)O)CCCCC1 [GABAPENTIN] ? > 30 µM

* * *

target: UniProtKB P30542
Sequence (P30542 whole entry): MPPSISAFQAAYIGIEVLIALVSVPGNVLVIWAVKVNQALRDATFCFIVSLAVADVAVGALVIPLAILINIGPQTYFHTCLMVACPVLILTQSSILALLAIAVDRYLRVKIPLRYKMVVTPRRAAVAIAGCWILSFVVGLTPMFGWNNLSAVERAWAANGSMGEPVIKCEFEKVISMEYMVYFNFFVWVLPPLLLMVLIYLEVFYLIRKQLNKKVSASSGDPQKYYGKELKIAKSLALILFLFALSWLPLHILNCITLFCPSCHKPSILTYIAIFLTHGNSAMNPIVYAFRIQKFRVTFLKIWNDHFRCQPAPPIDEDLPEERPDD
Examples of compounds with documented AC50 follow.

Previously resolved entries follow.
CNC1(C)C2CCC(C2)C1(C)C (configuration not stated)	> 10 µM
C[C@]12CCC(=O)C=C1C=C[C@@H]1[C@@H]2CC[C@@]2(C)[C@H]1CC[C@@]21CCC(=O)O1	> 30 µM
CC(C)/N=c1\cc2n(-c3ccc(Cl)cc3)c3ccccc3nc-2cc1Nc1ccc(Cl)cc1	> 30 µM
CN(C)CCCC1(c2ccc(F)cc2)OCc2cc(C#N)ccc21 (configuration not stated)	> 30 µM

What measured AC50 goes with "C[C@@H](Cc1ccccc1)N(C)Cc1ccccc1" ? > 10 µM

Similarly, CCOC(=O)C1=C(C)NC(C)=C(C(=O)OC)C1c1cccc(Cl)c1Cl (configuration not stated) ? > 30 µM

Similarly, C[C@@H](O)[C@H]1C(=O)N2C(C(=O)O)=C(SCCN=CN)C[C@H]12 [IMIPENEM ANHYDROUS] ? > 300 µM

Similarly, "N[C@@H](Cc1cc(I)c(Oc2cc(I)c(O)c(I)c2)c(I)c1)C(=O)O" ? > 30 µM

Similarly, "c1cnc2cc3c(cc2n1)[C@@H]1CNC[C@H]3C1" ? > 30 µM

Similarly, "Nc1cc(N2CCCCC2)nc(N)[n+]1[O-]" ? > 30 µM

Similarly, "CC(C)CN(C[C@@H](O)[C@H](Cc1ccccc1)NC(=O)O[C@H]1CCOC1)S(=O)(=O)c1ccc(N)cc1" ? > 30 µM

Similarly, "C[C@]12C=CC(=O)C=C1CC[C@@H]1[C@@H]2[C@@H](O)C[C@@]2(C)[C@H]1CC[C@]2(O)C(=O)CO" ? > 30 µM

Similarly, CCOC(=O)O[C@]1(C(=O)COC(=O)CC)CC[C@H]2[C@@H]3CCC4=CC(=O)C=C[C@]4(C)[C@H]3[C@@H](O)C[C@@]21C [PREDNICARBATE] ? > 10 µM

Similarly, "Nc1ccc(S(=O)(=O)Nc2ncccn2)cc1" ? > 10 µM

Similarly, "CS(=O)(=O)NC(=O)CCC/C=C\C[C@H]1C(=O)C[C@@H](O)[C@@H]1/C=C/[C@@H](O)COc1ccccc1" ? > 30 µM

Similarly, "CCCCC[C@H](O)CC[C@@H]1[C@H]2Cc3cccc(OCC(=O)O)c3C[C@H]2C[C@H]1O" ? > 30 µM

Similarly, CCN(CC)C(C)C(=O)c1ccccc1 (configuration not stated) ? > 30 µM

* * *

target: Gamma-aminobutyric acid receptor subunit alpha-1 (Rattus norvegicus); assay type: functional; also: assay procedure not described here
Sequence (P62813 whole entry): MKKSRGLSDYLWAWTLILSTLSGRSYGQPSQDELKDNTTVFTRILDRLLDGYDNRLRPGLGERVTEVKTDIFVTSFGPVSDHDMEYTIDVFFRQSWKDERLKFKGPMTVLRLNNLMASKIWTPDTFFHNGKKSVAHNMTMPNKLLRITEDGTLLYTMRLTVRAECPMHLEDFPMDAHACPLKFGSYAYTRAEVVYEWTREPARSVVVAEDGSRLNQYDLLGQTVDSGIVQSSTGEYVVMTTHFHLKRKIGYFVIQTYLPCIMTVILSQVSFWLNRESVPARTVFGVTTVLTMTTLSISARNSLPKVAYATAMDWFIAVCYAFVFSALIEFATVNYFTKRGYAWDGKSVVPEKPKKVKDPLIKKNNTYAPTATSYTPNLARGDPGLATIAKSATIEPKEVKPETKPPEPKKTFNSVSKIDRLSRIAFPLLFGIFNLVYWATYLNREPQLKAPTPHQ
MEASURE: AC50

Previously resolved entries follow.
CC(C)(Oc1ccc(Cl)cc1)C(=O)OCCOC(=O)c1cccnc1 [ETOFIBRATE]	> 30 µM
N=C(N)NC(=O)c1nc(Cl)c(N)nc1N [AMILORIDE]	> 30 µM
COc1cc2c(cc1OC)C1CC(=O)C(CC(C)C)CN1CC2 (stereo not given)	> 30 µM
CN(C)CCC(O)(c1ccccc1)c1ccccc1Cl (stereo not given)	> 10 µM
CC(C)(C)NCC(O)COc1ccccc1C#N (stereo not given)	> 30 µM
CN(C)CCOCC(=O)NC12CC3CC(CC(C3)C1)C2	> 30 µM

What measured AC50 goes with Nc1c2c(nc3ccccc13)CCCC2O (stereo not given) ? > 30 µM

* * *

Below are compounds with their AC50 as measured on Type-1 angiotensin II receptor (Homo sapiens, UniProt P30556).
Sequence (P30556 whole entry): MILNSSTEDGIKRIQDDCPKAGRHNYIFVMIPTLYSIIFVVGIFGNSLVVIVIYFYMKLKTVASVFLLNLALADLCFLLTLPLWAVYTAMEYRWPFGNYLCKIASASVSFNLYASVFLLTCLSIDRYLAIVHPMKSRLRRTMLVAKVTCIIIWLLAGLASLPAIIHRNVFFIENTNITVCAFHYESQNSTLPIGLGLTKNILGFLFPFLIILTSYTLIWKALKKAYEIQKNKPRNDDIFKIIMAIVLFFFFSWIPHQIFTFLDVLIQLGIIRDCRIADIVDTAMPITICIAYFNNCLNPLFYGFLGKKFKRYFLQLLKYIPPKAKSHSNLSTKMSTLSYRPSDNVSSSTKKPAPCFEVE

CCOC(=O)[C@H](CCc1ccccc1)N[C@@H](C)C(=O)N1Cc2ccccc2C[C@H]1C(=O)O	> 30 µM
C[C@]12C=CC(=O)C=C1CC[C@@H]1[C@@H]2[C@@H](O)C[C@@]2(C)[C@H]1CC[C@]2(O)C(=O)CO	> 30 µM
Nc1nnc(-c2cccc(Cl)c2Cl)c(N)n1	> 30 µM

Next item in the queue.
What measured AC50 goes with "OCC(CO)N[C@H]1C[C@](O)(CO)[C@@H](O)[C@H](O)[C@H]1O" ? > 30 µM

* * *

Below are compounds with their AC50 as measured on Sodium-dependent noradrenaline transporter (Homo sapiens, UniProt P23975).
Sequence (P23975 whole entry): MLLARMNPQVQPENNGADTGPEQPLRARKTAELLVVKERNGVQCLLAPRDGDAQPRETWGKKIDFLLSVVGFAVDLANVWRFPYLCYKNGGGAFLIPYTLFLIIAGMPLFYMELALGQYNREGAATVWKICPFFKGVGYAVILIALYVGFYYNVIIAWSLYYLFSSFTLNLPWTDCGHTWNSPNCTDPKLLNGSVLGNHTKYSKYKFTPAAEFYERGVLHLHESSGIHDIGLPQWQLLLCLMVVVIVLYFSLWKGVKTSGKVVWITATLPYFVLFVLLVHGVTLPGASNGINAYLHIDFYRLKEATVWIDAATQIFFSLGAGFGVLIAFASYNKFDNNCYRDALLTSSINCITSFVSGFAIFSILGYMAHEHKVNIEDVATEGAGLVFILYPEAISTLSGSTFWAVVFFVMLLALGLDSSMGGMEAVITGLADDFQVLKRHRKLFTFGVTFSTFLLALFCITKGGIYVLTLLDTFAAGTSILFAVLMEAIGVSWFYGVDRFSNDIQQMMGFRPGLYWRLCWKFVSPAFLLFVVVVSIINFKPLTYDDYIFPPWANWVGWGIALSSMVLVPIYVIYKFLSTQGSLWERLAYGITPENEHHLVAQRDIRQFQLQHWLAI

COC(=O)CCc1ccc(OCC(O)CNC(C)C)cc1 (stereo not given)	> 30 µM

What measured AC50 goes with CN(C)CCOC(=O)C(c1ccccc1)C1(O)CCCC1 (stereo not given) [CYCLOPENTOLATE] ? > 30 µM

Similarly, "CN1CCC(=C2c3ccccc3CC(=O)c3sccc32)CC1" ? > 10 µM

Similarly, "Oc1cc(O)c2c(c1)O[C@H](c1ccc(O)c(O)c1)[C@@H](O)C2" ? > 30 µM

Similarly, "Nc1nc(Cl)nc2c1ncn2[C@@H]1O[C@H](CO)[C@@H](O)[C@@H]1F" ? > 30 µM

Similarly, "CCC1(CC)C(=O)NC(=O)N(C)C1=O" ? > 10 µM

Similarly, CCc1ccc(C(=O)C(C)CN2CCCCC2)cc1 (stereo not given) ? > 30 µM

Similarly, "C=CC1=C(C(=O)O)N2C(=O)[C@@H](NC(=O)/C(=N\O)c3csc(N)n3)[C@H]2SC1" ? > 30 µM

Similarly, CCOC(=O)C1=C(C)NC(C)=C(C(=O)OC)C1c1cccc(Cl)c1Cl (stereo not given) ? > 10 µM

Similarly, "CC(C)CN(C[C@@H](O)[C@H](Cc1ccccc1)NC(=O)O[C@H]1CCOC1)S(=O)(=O)c1ccc(N)cc1" ? > 10 µM

Similarly, CC1NCCOC1c1ccccc1 (stereo not given) ? 11.4 µM

Similarly, "CCCCOC(=O)c1ccc(N)cc1" ? > 30 µM

Similarly, "CC(C)(N)Cc1ccccc1" ? 5.73 µM

Similarly, "CCC1(c2ccccc2)C(=O)NCNC1=O" ? > 10 µM

Similarly, "CN(C)[C@@H]1C(O)=C(C(=O)NCN2CCCC2)C(=O)[C@@]2(O)C(O)=C3C(=O)c4c(O)cccc4[C@@](C)(O)[C@H]3C[C@@H]12" ? > 10 µM

Similarly, "O=C(O)[C@H]1/C(=C/CO)O[C@@H]2CC(=O)N21" ? > 30 µM

Similarly, COc1cc2c(cc1OC)C1CC(=O)C(CC(C)C)CN1CC2 (stereo not given) ? > 30 µM

Similarly, CCC1(C)CC(=O)NC1=O (stereo not given) [ETHOSUXIMIDE] ? > 10 µM

Similarly, "COC(=O)c1ccc2c(c1)NC(=O)/C2=C(\Nc1ccc(N(C)C(=O)CN2CCN(C)CC2)cc1)c1ccccc1" ? > 30 µM

Similarly, "Oc1cc(Cl)ccc1Oc1ccc(Cl)cc1Cl" ? 0.7 µM

* * *

target: 5-hydroxytryptamine receptor 1A (Homo sapiens); also: assay procedure not described here
Sequence (P08908 whole entry): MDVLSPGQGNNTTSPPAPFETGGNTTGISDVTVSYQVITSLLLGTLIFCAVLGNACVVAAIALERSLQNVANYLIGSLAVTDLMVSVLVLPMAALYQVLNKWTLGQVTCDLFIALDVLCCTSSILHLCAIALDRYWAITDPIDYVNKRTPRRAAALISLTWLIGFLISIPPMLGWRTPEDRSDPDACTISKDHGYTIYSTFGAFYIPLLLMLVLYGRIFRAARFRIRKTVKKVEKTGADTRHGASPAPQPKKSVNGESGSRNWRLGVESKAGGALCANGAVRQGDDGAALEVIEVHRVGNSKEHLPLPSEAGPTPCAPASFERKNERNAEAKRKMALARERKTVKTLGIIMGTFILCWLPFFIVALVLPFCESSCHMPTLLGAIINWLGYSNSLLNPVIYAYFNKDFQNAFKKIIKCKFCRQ
MEASURE: AC50

Previously resolved entries follow.
CC(C)=CCC/C(C)=C/CC/C(C)=C/CC/C(C)=C/CC1=C(C)C(=O)c2ccccc2C1=O [MENATETRENONE]	22.5 µM
CSCC[C@H](N)C(=O)O [METHIONINE]	> 30 µM
CC(O)(CC(=O)O)CC(=O)O [MEGLUTOL]	> 30 µM
CC(=O)OCC(=O)[C@@]1(O)CC[C@H]2[C@@H]3C[C@H](C)C4=CC(=O)C=C[C@]4(C)[C@H]3[C@@H](O)C[C@@]21C [METHYLPREDNISOLONE ACETATE]	> 30 µM
Cc1cccc(C)c1NC(=O)CN(CC(=O)O)CC(=O)O [LIDOFENIN]	> 30 µM
COc1c(OCCCN2CCOCC2)ccc2c1N=C(NC(=O)c1cnc(N)nc1)N1CCN=C21 [COPANLISIB]	> 30 µM

What measured AC50 goes with CC(CN(C)C)CN1c2ccccc2CCc2ccccc21 (configuration not stated) [TRIMIPRAMINE] ? 20.1 µM

Similarly, CCCCCCCC/C=C\CCCCCCCC(=O)O [OLEIC ACID] ? > 30 µM

Similarly, CN(C)CCC=C1c2ccccc2CCc2ccccc21 [AMITRIPTYLINE] ? 0.337 µM

Similarly, CN(C)CCN(Cc1ccccc1)c1ccccn1 [TRIPELENNAMINE] ? > 30 µM

Similarly, COc1cccc2c1C(=O)c1c(O)c3c(c(O)c1C2=O)C[C@@](O)(C(=O)CO)C[C@@H]3O[C@H]1C[C@H](N)[C@H](O)[C@H](C)O1 [DOXORUBICIN] ? > 30 µM

Similarly, CC#CC(=O)N1CCC[C@H]1c1nc(-c2ccc(C(=O)Nc3ccccn3)cc2)c2c(N)nccn12 [ACALABRUTINIB] ? > 30 µM

Similarly, O=c1[nH]c2ccccc2n1CCN1CCN(c2cccc(C(F)(F)F)c2)CC1 [FLIBANSERIN] ? 0.003 µM

Similarly, Cc1ncc(CO)c(CO)c1O [PYRIDOXINE] ? > 30 µM

Similarly, "C[C@@H](O)[C@H]1C(=O)N2C(C(=O)O)=C(S[C@@H]3CN[C@H](C(=O)Nc4cccc(C(=O)O)c4)C3)[C@H](C)[C@H]12" ? > 30 µM

Similarly, COCC(=O)O[C@]1(CCN(C)CCCc2nc3ccccc3[nH]2)CCc2cc(F)ccc2[C@@H]1C(C)C [MIBEFRADIL] ? 0.746 µM

Similarly, CCCCCCCCCCCCCCCC(=O)OC[C@H](COP(=O)([O-])OCC[N+](C)(C)C)OC(=O)CCCCCCCCCCCCCCC [COLFOSCERIL PALMITATE] ? > 30 µM
